Source listed as the RNAGym collection of RNA variant scans (doi:10.1093/nar/gkz1192).

B1: CPEB3 Ribozyme (parent)
chain: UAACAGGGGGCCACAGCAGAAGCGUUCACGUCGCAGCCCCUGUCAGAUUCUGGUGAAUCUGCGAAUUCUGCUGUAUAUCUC

Variants of: B1
Test protocol: self-cleavage, relative activity (ratio to wild type); higher = more cleavage; in vitro, sequencing
Property: self-cleavage; scope: individual variants
Just the number, please, no unit attached.

UAUCAGGGGGCCACAGCAUAAGCGUUCACGUCGCAGCCCCUGUCAGAUUCUGGUGAAUCUGCGAAUUCUGCUGUAUAUCUC = 0.4
UAACAGGGGGCCACAGCAGAAGCGAUCACGUCGCAGCCCCUGUCAGAUUCUGGUGAAUCUGCGAAUUCUGCUGAAUAUCUC = 0.25

Please find the next variant below.
Tell me measured self-cleavage for UAACAGGGGGACACAGCAGAAGCGUUCACGUCGCAGCCCCUGUCAGAUUCUGGUGAAUCUGCGAUUUCUGCUGUAUAUCUC please.
0.18
